Source listed as PubChem BioAssay (NCI).

Tested on: COLO 205 colon
Test: NCI tumour cell line growth inhibition, 48 h; in the data active = GI50 below about 0.43 µM; inactive = the rest
Outcome codes: True = active, False = inactive

[
  {
    "compound": "CCn1c(-c2nonc2N)nc2ccncc21",
    "qualitativeLabel": "False"
  },
  {
    "compound": "c1cnn2ncc(-c3ccnc(Nc4ccc5c(c4)OCCO5)n3)c2c1",
    "qualitativeLabel": "True"
  },
  {
    "compound": "COc1cccc2c(=O)c3c(sc12)c(NCCCNCCO)nc1ccccc13",
    "qualitativeLabel": "False"
  },
  {
    "compound": "COc1ccc(Nc2nccc(N3CCN(c4c5ccc(Cl)cc5nc5ccc(OC)cc45)CC3)n2)cc1",
    "qualitativeLabel": "False"
  },
  {
    "compound": "Fc1ccc2nc(-c3cc(-c4ccc5c(c4)OCO5)n[nH]3)[nH]c2c1",
    "qualitativeLabel": "False"
  },
  {
    "compound": "CC(=O)Oc1c(C)c(C)c2c(c1C)CCC(C)(CC(=O)OCCCCCCCCCCC[P+](c1ccccc1)(c1ccccc1)c1ccccc1)O2 (configuration not stated)",
    "qualitativeLabel": "True"
  },
  {
    "compound": "COc1ccc(-c2cnoc2-c2cc(OC)c3c(c2)OCCO3)cc1",
    "qualitativeLabel": "True"
  },
  {
    "compound": "O=C(/C=C/c1cccc(O)c1)c1cccc(-n2cc(-c3ccc4ccccc4c3)[nH]c2=O)c1",
    "qualitativeLabel": "False"
  },
  {
    "compound": "COc1cccc(COc2cc(-n3cnc4ccccc43)sc2C(N)=O)c1",
    "qualitativeLabel": "False"
  },
  {
    "compound": "CC(C)[O-].CC(C)[O-].CN(CCN(C)Cc1cc(F)cc(F)c1[O-])Cc1cc(F)cc(F)c1[O-].[Ti+4]",
    "qualitativeLabel": "False"
  },
  {
    "compound": "C/C1=C\\CC[C@@](C)(O)[C@@H]2C[C@H](CC/C(C)=C/CC1)C1(CC1)C(=O)O2",
    "qualitativeLabel": "False"
  },
  {
    "compound": "COc1cc2nc(-c3ccc(C(F)(F)F)cc3)cc(OCCCN3CCCC3)c2cc1OC",
    "qualitativeLabel": "True"
  }
]

* * *

System: K-562 leukemia
Outcome codes: 1 (yes) (active), 0 (no) (inactive)

[
  {
    "compound": "CCCCCCCCCCCCCC[n+]1cccc(C(N)=O)c1",
    "systemName": "K-562 leukemia",
    "qualitativeLabel": "0 (no)"
  },
  {
    "compound": "c1cnn2ncc(-c3ccnc(Nc4ccc5c(c4)OCCO5)n3)c2c1",
    "systemName": "K-562 leukemia",
    "qualitativeLabel": "1 (yes)"
  },
  {
    "compound": "CC1c2ccccc2N=C2SC(=S)N3CCN=C3N21 (stereo unspecified)",
    "systemName": "K-562 leukemia",
    "qualitativeLabel": "0 (no)"
  },
  {
    "compound": "O=C(c1cccs1)C1NO[N+]([O-])=C1c1cccs1 (stereo unspecified)",
    "systemName": "K-562 leukemia",
    "qualitativeLabel": "0 (no)"
  },
  {
    "compound": "CC(=O)[CH-]C(=O)c1ccccc1.CC(=O)[CH-]C(=O)c1ccccc1.CC1(C)OCC(C2OC3OC(C)(C)OC3C2[O-])O1.CC[O-].[Ti+4] (stereo unspecified)",
    "systemName": "K-562 leukemia",
    "qualitativeLabel": "0 (no)"
  },
  {
    "compound": "CCn1c(-c2nonc2N)nc2ccncc21",
    "systemName": "K-562 leukemia",
    "qualitativeLabel": "0 (no)"
  }
]
